assayedSystem: T1, hIL-4R on cells (STAT6-transfected HEK293, TF1, TF1/A12) (human, UniProt P24394 26-825)
T1 sequence (looked up): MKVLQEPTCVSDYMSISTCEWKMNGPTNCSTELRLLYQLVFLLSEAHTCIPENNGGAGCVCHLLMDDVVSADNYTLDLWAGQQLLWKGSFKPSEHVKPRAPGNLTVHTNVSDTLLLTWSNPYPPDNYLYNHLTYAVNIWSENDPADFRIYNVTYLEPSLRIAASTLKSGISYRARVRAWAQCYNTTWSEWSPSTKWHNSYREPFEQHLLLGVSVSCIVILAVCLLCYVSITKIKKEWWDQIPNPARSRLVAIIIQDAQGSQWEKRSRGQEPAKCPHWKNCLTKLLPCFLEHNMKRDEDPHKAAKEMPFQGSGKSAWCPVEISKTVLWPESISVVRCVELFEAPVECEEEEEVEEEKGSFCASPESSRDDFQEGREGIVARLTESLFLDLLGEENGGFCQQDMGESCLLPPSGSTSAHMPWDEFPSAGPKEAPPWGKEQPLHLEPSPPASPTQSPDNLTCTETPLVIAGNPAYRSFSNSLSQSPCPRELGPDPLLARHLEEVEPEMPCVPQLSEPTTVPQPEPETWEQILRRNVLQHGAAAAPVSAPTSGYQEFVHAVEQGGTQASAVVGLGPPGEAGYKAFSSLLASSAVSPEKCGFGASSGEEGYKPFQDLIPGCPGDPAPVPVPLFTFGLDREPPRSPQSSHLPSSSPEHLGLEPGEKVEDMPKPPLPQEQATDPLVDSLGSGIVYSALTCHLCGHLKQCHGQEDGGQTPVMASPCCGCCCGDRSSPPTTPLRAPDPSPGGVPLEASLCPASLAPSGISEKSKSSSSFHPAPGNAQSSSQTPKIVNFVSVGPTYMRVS
test: cell-based or functional assay
endpointLabel: STAT6 Bioassay IC50 (HEK293 STAT6 luciferase, 10 pM hIL-4) (nM)

| binder | inequalityOperator | reading |
| --- | --- | --- |
| VAB 4D5-3 (antibody, V domains shown, Apparently tested with mouse constant region (anti-mouse IgG capture/detection)) VH: QVQLVQSGPEVKKPGASVKVSCKASGYTFTNYGISWVRQAPGQGLEWMGWISVYNGKTNYAQKFQGRVTMTTDTSTSTAYMDLRSLRSDDTAVYYCARGSGYDFDYWGQGTLVTVSS VL: AIQMTQSPSSLSASVGDRVTITCRASQGIRNALGWYQQKPGKAPKLLIFASSSLQSGVPSRFSGSGSGTDFTLTIRSLQPEDFAAYYCLQDYNYPYTFGQGTKLEIK | = | 3.8 |
| VAB 15C8-17 (antibody, V domains shown, Apparently tested with mouse constant region (anti-mouse IgG capture/detection)) VH: QVQLVESGGGLVQPGGSLRLSCAVSGFTISDHYMSWIRQAPGKGLEWISYISSSGSKIYYADSVKGRFTISRDNAKNSLFLQMNSLRAEDTAVYYCARTRQLVGDYWGQGTLVTVSS VL: DIQLTQSPSFLSASVGDRVTITCWASQGISSYLAWYQQKPGKAPKLLIFAASTLQSGVPSRFSGSGSGTEFTLTISSLQPEDFATYYCQQLNSYPLTFGGGTKVEIR | = | 0.32 |
| VAB 11G8-1 (antibody, V domains shown, Apparently tested with mouse constant region (anti-mouse IgG capture/detection)) VH: QVQLVQSGAEVKKPGASVKVSCKASGYTFTNYGISWVRQAPGQGLEWMGWISVYNGHTNYAQKLQGRVTMTTDTSTSTAYMELRSLRSDDTAVYYCARGSGYDFDSWGQGTLVTVSS VL: AIQMTQSSSSLSASVGDRVTITCRASQAIRNALGWYQQKPGKAPKVLIYAASSLQSGIPSRFSGSGSGTDFTLTISSLQPEDFATYYCLQDYDYPYTFGQGTKLEIK | > | 10 |
| VAB 16G1-1 (antibody, V domains shown, 403/405; 407/409 without saying which was assayed; Apparently tested with mouse constant region (anti-mouse IgG capture/detection)) VH: EVKLAESGGGLVQPGGSLRLSCAASGFTFSSHWMNWVRQAPGKGLEWVANIKQDGSDKYYVDSVKGRFTISRDNAKNSLYLQLNSLIAEDTAVYYCARDRGVRPPRGAFDIWGQGTMVTVSS VL: DIQMTQSPSSVSASVGDRVTITCRASQGISSWLAWYQQKPGKAPKLLIYAASSFQSGVPSRFSGSGSGTDFTLTISSLQPEDFATYFCQQANSFPLTFGGGTTVEIK | = | 0.14 |
| VAB 6C10-14 (antibody, V domains shown, Apparently tested with mouse constant region (anti-mouse IgG capture/detection)) VH: QVQLVQSGAEVKKPGASVKVSCKASGYTFTNYGLTWVRQAPGRGLEWMGWISVYNGNTNYAQTLKGRVTMTTDTSTSTAYMELKSLRSDDTAVYYCARGSGYDFDYWGQGTLVTVSS VL: AIQMTQSPSSLSASVGDRVAITCRASQDIRNDLGWYQQKPGKAPKLLIHTASSLQSGVPSRFSGSGSGTDFTLTISNLQPEDFATYYCLQDNSYPYTFGQGTKLEIN | > | 10 |
| VAB 10G8-19 (antibody, V domains shown, Apparently tested with mouse constant region (anti-mouse IgG capture/detection)) VH: QVQLVQSGAEVKKPGASVKVSCKASRYTFTSYDINWVRQATGQGLEWMGWMNPNSGNTGYAQKFQGRVTMTRNTSTSTAYMELSSLRSEDTAVYYCARVRRFFDYWGQGTLVTVSS VL: DIQLTQSPSFLSASVGDRVTITCWASQGIISYLAWYQQKPGKAPKLLIYAASTLHSGVPSRFSGSGSGTEFTLTISSLQPEDFATYYCHQLKSYPITFGQGTRLEIK | = | 1.8 |
| VAB 1H1-2 (antibody, V domains shown, Apparently tested with mouse constant region (anti-mouse IgG capture/detection)) VH: QVQLVQSGAEVKKPGASVKVSCKASGYTFTSYGISWVRQAPGQGLEWMGWISVYNGNTNYAQKLQGRVTMTTDTSTSTAYMDLRSLRSDDAAVYYCARGSGYDFDYWGQGTLVTVSS VL: AIQMTQSPSSLSASVGDRVTITCRASQGIRNALGWYQQKPGKAPKLLIYAASSLQSGVPSRFSGSGSGTDFTLTISSLQSEDFATYYCLQDYNYPYTFGQGTKLEIK | > | 10 |
| VAK12B11-9 (antibody, V domains shown, Apparently tested with mouse constant region (anti-mouse IgG capture/detection)) VH: QVQLVESGGGVVQPGRSLRLSCAASGFTFSSYAMYWVRQAPGKGLEWVAVISYDGSNKYYTDSVKGRFTVSRDNSKNTLFLQMNSLRAEDTALYYCAKESSSYGLDVWGQGTTVTVSS VL: DIQMTQSPSTLSASVGDRVAITCRASQSISNWLAWYQQKPGKAPKLLISKASSLKSGVPSRFSGSGSGTEFTLTISSLQPDDFAAYYCQQYNSYSYTFGQGTKLEIK | = | 0.49 |
| VAB 8G10-1 (antibody, V domains shown, Apparently tested with mouse constant region (anti-mouse IgG capture/detection)) VH: QVQLVQSGPEVKKPGASVKVSCKASGYTFTNYGISWVRQAPGQGLEWMGWISVYNGNINYAQKLQGRVTMTTDTSTSTAYMDLRSLRSDDTAVYYCARGSGYDFDYWGQGTLVTVSS VL: AIQMTQSPSSLSASVGDRVTITCRASQDIRNALGWYQQKPGKAPKLLIYAASSLQSGVPSRFSGSASGTDFTLTISSLQPEDFAAYYCLQDYNYPYTFGQGTKLEIK | > | 10 |
